Where do the numbers come from? From patent US5763235A.

- system.under.test: ALA dehydratase variant of strain CR-520
- assay.explanation: ALA dehydratase reaction with crude enzyme of strain CR-520
- Format: biochemical, Rhodobacter sphaeroides CR-520
- test.context: inhibitor constant of levulinic acid, Dixon plot; enzyme of CR-520; 37° C., 60 minutes; unit not given (concentrations in method in mM)
test.readout: Ki (mM)

[[record]]
compound = "CC(=O)CCC(=O)O [levulinic acid]"
system_under_test = "ALA dehydratase variant of strain CR-520"
test_readout = "Ki"
unit_of_measurement = "mM"
number = 0.07


* * *

- system.under.test: ALA dehydratase of strain CR-533
- test.context: inhibitor constant of levulinic acid, Dixon plot; enzyme of CR-533; 37° C., 60 minutes; unit not given (concentrations in method in mM)
test.readout: Ki (mM)

[[record]]
item_smiles = "CC(=O)CCC(=O)O"
test_readout = "Ki"
unit_of_measurement = "mM"
number = 0.36

